Please provide measured pIC50 for the entries that follow.
# TARGET_OR_TEST_SYSTEM: ovine COX-1 (oCOX-1) (Ovis aries)
# Construct: purchased Cayman Chemicals (Ann Arbor, Mich.)
# Sequence (P05979 25-600): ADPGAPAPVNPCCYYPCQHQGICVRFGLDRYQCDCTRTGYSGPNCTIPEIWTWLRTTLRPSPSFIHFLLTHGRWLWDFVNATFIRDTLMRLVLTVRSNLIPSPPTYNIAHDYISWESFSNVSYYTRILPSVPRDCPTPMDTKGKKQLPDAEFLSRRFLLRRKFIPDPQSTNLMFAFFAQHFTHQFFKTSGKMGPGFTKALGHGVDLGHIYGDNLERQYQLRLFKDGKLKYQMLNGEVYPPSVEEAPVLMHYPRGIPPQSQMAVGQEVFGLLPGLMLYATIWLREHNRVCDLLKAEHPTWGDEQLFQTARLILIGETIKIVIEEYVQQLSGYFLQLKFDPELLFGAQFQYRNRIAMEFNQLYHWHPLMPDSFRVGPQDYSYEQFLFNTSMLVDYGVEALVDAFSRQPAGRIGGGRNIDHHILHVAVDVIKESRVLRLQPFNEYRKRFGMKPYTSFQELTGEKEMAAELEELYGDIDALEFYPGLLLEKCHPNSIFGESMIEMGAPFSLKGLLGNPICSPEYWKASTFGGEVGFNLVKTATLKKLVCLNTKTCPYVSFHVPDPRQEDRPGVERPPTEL
# ASSAY_EXPLANATION: LCMS-based COX-1 enzymatic inhibition assay (PGE2 quantification)
# Format: biochemical
# ASSAY_CONTEXT: 10 minutes; readout pge2/pge2d4 area ratio; average; read-out: COX1 10 minutes pge2/pge2d4 area ratio Avg. IC50
# From the text: We have adapted a previously reported cyclooxygenase enzymatic assay utilizing LCMS quantification of PGE2 as the product of COX-1 and COX2 catalyzed conversion of arachidonic acid to evaluate the binding properties of newly synthesized ligands [Cao, 2011]. […] Using these enzymatic assays, we have evaluated>200 newly synthesized ligands against COX2 and >20 ligands against COX-1. […]
Give bare numbers, as −log10 of the molar value.

Some solved cases for reference:
CS(=O)(=O)c1ccc(-c2cncc(OCc3ccoc3)n2)cc1 [Compound 58]    4.46
CS(=O)(=O)c1ccc(-c2cccc(OCc3cccs3)n2)nc1 [Compound 37]    4.41

Switching to the query record.
Quick check: pIC50 of CS(=O)(=O)c1ccc(-c2cncc(NCc3ccc(F)cc3)n2)cc1 [Compound 96] ? 4.47

Data credit: patent US20220348590A1
